Reference source: patent US20240174692A1

METHOD_DESCRIPTION: Pharmacokinetic evaluation of compounds in rats
Assay type: in vivo
TEST_PARAMETERS: rat, plasma; SD rats, IV, 1.56 mg/kg
MEASURED_PARAMETER: AUC(0-inf) (µM·h)
Number in µM·h, nothing else.

Which AUC(0-inf) value is on record for C#Cc1c(F)ccc2cc(N)cc(-c3ccc4c(N5CC6CCC(C5)N6)nc(OC[C@@]56CCCN5C[C@H](F)C6)nc4c3F)c12 [Compound 014] ?
0.15

====

Test system: p-ERK in GP2D cells
METHOD_DESCRIPTION: Assay of p-ERK inhibition in GP2D cells (HTRF)
Assay type: cell-based
TEST_PARAMETERS: Homo sapiens, 1 hour incubation
Counter-ions that a name gives are not always drawn.
MEASURED_PARAMETER: log10(IC50) (log10 of the value in nM)
Annotation: log10 of IC50, nM basis.

// log10(IC50) lookup, key: Nc1cc(-c2ccc3c(N4CC5CCC(C4)N5)nc(OC[C@@]45CCCN4C[C@H](F)C5)nc3c2F)c2c(F)c(F)ccc2c1 [Compound 013 hydrochloride]
-0.06

Please report the recorded log10(IC50) for C#Cc1c(F)ccc2cc(N)cc(-c3ccc4c(N5CC6CCC(C5)N6)nc(OC[C@@]56CCCN5C[C@H](F)C6)nc4c3F)c12 [Compound 014] .
-0.37

Query (compound): C#Cc1c(F)ccc2cc(N)cc(-c3c(Cl)cc4c(N5CC6CCC(C5)N6)nc(OC[C@@]56CCCN5C[C@H](F)C6)nc4c3F)c12 (single isomer, unassigned) [Compound 016B] ; field requested: log10(IC50)
-0.17

May I ask what log10(IC50) has been recorded for CCc1c(F)ccc2cc(O)cc(-c3ccc4c(N5CC6CCC(C5)N6)nc(OC[C@@]56CCCN5C[C@H](F)C6)nc4c3Cl)c12 [Compound 024 formate] ?
0.64

Which log10(IC50) is reported for this compound? Cc1cc(N)c(F)c(-c2c(Cl)cc3c(N4CC5CCC(C4)N5)nc(OC[C@@]45CCCN4C[C@H](F)C5)nc3c2F)c1C(F)(F)F [Compound 022 formate]
1.06

Recorded log10(IC50) of N#Cc1c(N)sc2c(F)ccc(-c3c(Cl)cc4c(N5CC6CCC(C5)N6)nc(OC[C@@]56CCCN5C[C@H](F)C6)nc4c3F)c12 [Compound 012 formate] , please.
-0.15

====

METHOD_DESCRIPTION: Pharmacokinetic evaluation of compounds in mice
Type: in vivo, CD-1 mice
TEST_PARAMETERS: mouse, plasma; CD-1 male mice, PO, 5.54 mg/kg
Counter-ions that a name gives are not always drawn.
MEASURED_PARAMETER: Cmax (nM)
A number alone suffices; assume nM.

What value of measured Cmax is listed for C#Cc1c(F)ccc2cc(O)cc(-c3ccc4c(N5CC6CCC(C5)N6)nc(OC[C@@]56CCCN5C[C@H](F)C6)nc4c3F)c12 [Compound 010 hydrochloride] ?
54

====

METHOD_DESCRIPTION: Pharmacokinetic evaluation of compounds in mice
Assay type: in vivo, CD-1 mice
TEST_PARAMETERS: mouse, plasma; CD-1 male mice, IV, 1.03 mg/kg
MEASURED_PARAMETER: half-life (h)
Please reply with the bare figure in h and do not write the unit itself.

I'd like to know its half-life. The compound in question is "C#Cc1c(F)ccc2cc(O)cc(-c3ccc4c(N5CC6CCC(C5)N6)nc(OC[C@@]56CCCN5C[C@H](F)C6)nc4c3F)c12"
8.1
